# TESTED_TARGET: human orexin receptor 1 (Homo sapiens (Human), UniProt O43613)
# Sequence (O43613 whole entry): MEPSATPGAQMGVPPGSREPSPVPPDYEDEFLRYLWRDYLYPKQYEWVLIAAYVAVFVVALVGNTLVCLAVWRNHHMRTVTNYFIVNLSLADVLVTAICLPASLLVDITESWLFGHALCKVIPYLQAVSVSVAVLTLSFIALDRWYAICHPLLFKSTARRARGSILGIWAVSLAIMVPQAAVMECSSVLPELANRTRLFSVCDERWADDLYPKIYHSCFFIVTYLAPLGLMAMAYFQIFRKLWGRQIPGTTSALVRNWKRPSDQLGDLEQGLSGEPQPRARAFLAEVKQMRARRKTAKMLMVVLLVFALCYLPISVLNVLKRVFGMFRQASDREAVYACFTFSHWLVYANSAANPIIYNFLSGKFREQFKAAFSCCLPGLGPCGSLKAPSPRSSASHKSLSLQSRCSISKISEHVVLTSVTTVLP
# EXPERIMENT_NOTES: Orexin antagonist activity, intracellular calcium FLIPR assay, RBL-2H3 cells expressing human orexin receptor 1
# MEASUREMENT_CONDITIONS: RBL-2H3 cells stably expressing human orexin receptor 1; orexin-A at approx. 80% maximal response; compound added 15 minutes before; read-out: Human Orexin1R IC50
pIC50: −log10 of the molar value.
Measured pIC50 accompanies every entry in the list below.
READOUT_TYPE: pIC50

# COMPOUND, READOUT_TYPE, OBSERVED
data = [
    ("O=C(NC1CC(F)(F)CC1Nc1cnc(C(F)(F)F)cn1)c1ccccc1-n1nccn1 (single isomer, unassigned) [Example 130]", "pIC50", 7.11),
    ("O=C(N[C@H]1CCC[C@@H]1Nc1ccc(C(F)(F)F)cn1)c1ccccc1Cl", "pIC50", 6.49),
    ("COc1cccc(-n2cccn2)c1C(=O)N[C@H]1CCC[C@@H]1Nc1cnc(C(F)(F)F)cn1", "pIC50", 7.10),
    ("COc1cc(Br)cnc1N[C@H]1CCC[C@@H]1NC(=O)c1ccccc1-n1nccn1", "pIC50", 7.66),
    ("O=C(N[C@H]1CCC[C@@H]1Nc1ccc(C(F)(F)F)cn1)c1c(F)cccc1-n1nccn1", "pIC50", 7.34),
    ("COc1cccc(OC)c1C(=O)N[C@H]1CCC[C@@H]1Nc1cccc(C(F)(F)F)n1", "pIC50", 6.14),
    ("O=C(NC1CCCC1Cc1cc(C(F)(F)F)ccn1)c1ccccc1-n1nccn1 (single isomer, unassigned) [Example 23]", "pIC50", 6.10),
    ("O=C(N[C@H]1CCC[C@@H]1Nc1ncc(C(F)(F)F)cc1Cl)c1ncccc1-n1nccn1", "pIC50", 7.49),
    ("Cc1nnc(-c2ccccc2C(=O)N[C@H]2CCC[C@@H]2Nc2cnc(C(F)(F)F)cn2)o1", "pIC50", 6.70),
    ("Cc1noc(-c2ccccc2C(=O)N[C@H]2CCC[C@@H]2Nc2ncc(C(F)(F)F)cn2)n1", "pIC50", 7.27),
    ("CN(c1cnc(C(F)(F)F)cn1)[C@H]1CCC[C@@H]1NC(=O)c1c(F)cccc1-n1nccn1", "pIC50", 6.55),
    ("CC1(Nc2ccc(C(F)(F)F)cn2)CCCC1NC(=O)c1ccccc1-n1nccn1 (stereo not drawn)", "pIC50", 7.72),
    ("C[C@]1(Nc2cnc(C(F)(F)F)cn2)CCC[C@@H]1NC(=O)c1c(Cl)cccc1-n1nccn1", "pIC50", 8.10),
    ("CC1(Nc2ncc(C(F)(F)F)cn2)CCCC1NC(=O)c1ccccc1-n1nccn1 (single isomer, unassigned) [Example 94]", "pIC50", 7.55),
    ("O=C(N[C@H]1CCC[C@@H]1Nc1cnc(C(F)(F)F)cn1)c1cc(C2CC2)ccc1-n1nccn1", "pIC50", 7.42),
]

###

# TESTED_TARGET: human orexin receptor 1 (Homo sapiens (Human))
# EXPERIMENT_NOTES: Orexin antagonist activity, intracellular calcium FLIPR assay, RBL-2H3 cells expressing human orexin receptor 1
# MEASUREMENT_CONDITIONS: RBL-2H3 cells stably expressing human orexin receptor 1; orexin-A at approx. 80% maximal response; compound added 15 minutes before; read-out: Human Orexin1R IC50
// boundary case: IC50 equal to 40 nM maps to Criterion not met; strictly smaller maps to Criterion met

# COMPOUND, CLASSIFICATION
records = [
    ("Cc1nc(C(F)(F)F)cnc1N[C@H]1CCC[C@@H]1NC(=O)c1cc(F)ccc1-c1ncccn1 [Example 80]", "Criterion met"),
    ("C[C@]1(Nc2cnc(C(F)(F)F)cn2)CCC[C@@H]1NC(=O)c1ncccc1-c1ncccn1 [Example 144]", "Criterion met"),
    ("C[C@]1(Nc2cnc(C(F)(F)F)cn2)CCC[C@@H]1NC(=O)c1ncccc1-n1nccn1 [Example 77]", "Criterion met"),
    ("C[C@]1(Nc2cnc(C(F)(F)F)cn2)CCC[C@@H]1NC(=O)c1ccccc1-n1nccn1 [Example 81]", "Criterion met"),
    ("CCc1cnc(N[C@H]2CCC[C@@H]2NC(=O)c2cc(C)ccc2-n2nccn2)nc1 [Example 4]", "Criterion not met"),
    ("COc1cccc(F)c1C(=O)N[C@H]1CCC[C@@H]1Nc1cnc(C(F)(F)F)cn1 [Example 136]", "Criterion not met"),
    ("O=C(N[C@H]1CC(F)(F)C[C@@H]1Nc1ncc(C(F)(F)F)cc1F)c1ccccc1-n1nccn1 [Example 132]", "Criterion met"),
    ("Cc1noc(-c2ccccc2C(=O)N[C@H]2CCC[C@@H]2Nc2ncc(C(F)(F)F)nc2C)n1 [Example 141]", "Criterion not met"),
]
